- Format: in vivo, human
- assay-context: human, plasma, po, 40 mg
quantity: half-life (h)
Respond with the bare value in h.

Problem: Return half-life for the following compound: `O=C(Nc1ccc(OC(F)(F)Cl)cc1)c1cnc(N2CC[C@@H](O)C2)c(-c2ccn[nH]2)c1`
Solution: 12.6

----------
- Type: in vivo, human
- assay-context: human, plasma, po, 40 mg, AUCinf, adjusted G mean, Cohort 1, asciminib ± itraconazole (oral solution); linear mixed effects model
quantity: AUC(0-inf) (ng·h/mL)
Respond with the bare value in ng·h/mL.

Problem: Return AUC(0-inf) for the following compound: `O=C(Nc1ccc(OC(F)(F)Cl)cc1)c1cnc(N2CC[C@@H](O)C2)c(-c2ccn[nH]2)c1`
Solution: 7000

----------
- Format: in vivo, human
- assay-context: human, plasma, oral, 40 mg, Cmax, adjusted G mean, Cohort 2, asciminib ± quinidine; linear mixed effects model
quantity: Cmax (ng/mL)
Respond with the bare value in ng/mL.

Problem: Return Cmax for the following compound: `O=C(Nc1ccc(OC(F)(F)Cl)cc1)c1cnc(N2CC[C@@H](O)C2)c(-c2ccn[nH]2)c1`
Solution: 618

----------
- Assay type: in vivo, human
- assay-context: human, plasma, oral, 40 mg
quantity: AUC(0-t) (ng·h/mL)
Respond with the bare value in ng·h/mL.

Problem: Return AUC(0-t) for the following compound: `O=C(Nc1ccc(OC(F)(F)Cl)cc1)c1cnc(N2CC[C@@H](O)C2)c(-c2ccn[nH]2)c1`
Solution: 9200

----------
- Format: in vivo, human
- assay-context: human, plasma, oral, 40 mg, AUClast, adjusted G mean, Cohort 3, asciminib ± rifampicin; linear mixed effects model
quantity: AUC(0-t)

Problem: Return AUC(0-t) for the following compound: `O=C(Nc1ccc(OC(F)(F)Cl)cc1)c1cnc(N2CC[C@@H](O)C2)c(-c2ccn[nH]2)c1`
Solution: 5400 ng·h/mL
